biological target: Peroxisome proliferator-activated receptor gamma (Homo sapiens)
Sequence (P37231 whole entry): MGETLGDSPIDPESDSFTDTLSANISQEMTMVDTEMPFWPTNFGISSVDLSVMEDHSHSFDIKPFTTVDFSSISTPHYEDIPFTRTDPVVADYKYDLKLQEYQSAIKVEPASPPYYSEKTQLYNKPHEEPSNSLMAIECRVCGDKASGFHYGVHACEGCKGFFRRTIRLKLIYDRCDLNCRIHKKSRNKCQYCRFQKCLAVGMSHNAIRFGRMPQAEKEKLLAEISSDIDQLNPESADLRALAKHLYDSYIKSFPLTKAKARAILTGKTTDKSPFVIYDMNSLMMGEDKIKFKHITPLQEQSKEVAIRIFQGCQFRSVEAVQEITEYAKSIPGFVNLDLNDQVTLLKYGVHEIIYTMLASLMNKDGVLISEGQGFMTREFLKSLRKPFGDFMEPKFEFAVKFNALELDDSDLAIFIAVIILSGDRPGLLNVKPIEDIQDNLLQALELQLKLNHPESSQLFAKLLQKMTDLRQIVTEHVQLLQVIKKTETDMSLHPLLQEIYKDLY
observation_type: pEC50
Kindly note that pEC50 refers to -log10 of the concentration in mol/L and answer with the value alone.

Recorded pEC50, per entry:
mol_smiles: Cc1oc(-c2cccc(Br)c2)nc1CCOc1ccc(OC(C)(C)C(=O)O)cc1
observation_type: pEC50
readout_number: 6.10

mol_smiles: Cc1oc(-c2cccc(Br)c2)nc1CN(Cc1ccc(OC(C)(C)C(=O)O)cc1)Cc1ccco1
observation_type: pEC50
readout_number: 6.51

mol_smiles: COc1ccc(CN(Cc2ccc(OC(C)(C)C(=O)O)cc2)Cc2nc(-c3cccc(Br)c3)oc2C)cc1
observation_type: pEC50
readout_number: 6.15

Exam item: # value lookup — system Peroxisome proliferator-activated receptor gamma (Homo sapiens), readout pEC50, item Cc1oc(-c2ccccc2)nc1CN(Cc1ccco1)Cc1ccc(OC(C)(C)C(=O)O)cc1Cl
Marked response: 6.05

----------
Biological target: Peroxisome proliferator-activated receptor alpha (Homo sapiens, UniProt Q07869)
Sequence (Q07869 whole entry): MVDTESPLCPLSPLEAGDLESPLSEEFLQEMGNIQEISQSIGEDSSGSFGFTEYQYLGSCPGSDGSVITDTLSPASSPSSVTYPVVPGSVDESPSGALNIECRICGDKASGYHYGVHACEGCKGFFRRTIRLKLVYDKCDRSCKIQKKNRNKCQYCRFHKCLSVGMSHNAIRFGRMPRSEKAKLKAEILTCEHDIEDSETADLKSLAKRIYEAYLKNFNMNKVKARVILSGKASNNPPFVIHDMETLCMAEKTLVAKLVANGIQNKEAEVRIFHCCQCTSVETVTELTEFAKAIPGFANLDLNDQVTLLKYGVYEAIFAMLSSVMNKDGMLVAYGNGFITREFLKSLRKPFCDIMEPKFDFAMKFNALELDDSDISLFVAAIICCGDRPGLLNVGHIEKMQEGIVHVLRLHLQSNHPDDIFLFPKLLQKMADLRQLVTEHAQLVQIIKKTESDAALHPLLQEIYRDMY
Assay: Agonist activity at GAL4-fused PPARalpha assessed as transcriptional activity by cell based assay
Assay type: functional
Assign labels as follows, please: Yes for EC50 below 40 nM; No for EC50 equal to or exceeding 40 nM.

Below, 3 molecules whose answers are already recorded.
mol_smiles: Cc1oc(-c2cccc(Br)c2)nc1CN(Cc1ccccc1)Cc1ccc(OC(C)(C)C(=O)O)cc1
test_system: Peroxisome proliferator-activated receptor alpha (Homo sapiens, UniProt Q07869)
assigned_category: No

mol_smiles: Cc1oc(-c2ccccc2)nc1CN(Cc1ccco1)Cc1ccc(OC(C)(C)C(=O)O)cc1Cl
test_system: Peroxisome proliferator-activated receptor alpha (Homo sapiens, UniProt Q07869)
assigned_category: Yes

mol_smiles: Cc1oc(-c2ccccc2)nc1CCOc1ccc(OC(C)(C)C(=O)O)cc1
test_system: Peroxisome proliferator-activated receptor alpha (Homo sapiens, UniProt Q07869)
assigned_category: No

Exam item: Would you kindly verify if EC50 of Cc1cc(CN(Cc2ccco2)Cc2nc(-c3ccccc3)oc2C)cc(C)c1OC(C)(C)C(=O)O is strictly less than 40 nM?
Marked response: Yes

Exam item: Would you kindly verify if EC50 of COc1ccc(CN(Cc2ccc(OC(C)(C)C(=O)O)cc2)Cc2nc(-c3cccc(Br)c3)oc2C)cc1 is strictly less than 40 nM?
Marked response: Yes

----------
biological target: Peroxisome proliferator-activated receptor alpha (Homo sapiens, UniProt Q07869); assay: Agonist activity at GAL4-fused PPARalpha assessed as transcriptional activity by cell based assay
observation_type: pEC50
Kindly note that pEC50 refers to -log10 of the concentration in mol/L and answer with the value alone.

Recorded pEC50, per entry:
compound: Cc1cc(CN(Cc2ccco2)Cc2nc(-c3ccccc3)oc2C)ccc1OC(C)(C)C(=O)O
observation_type: pEC50
readout_number: 8.41

compound: Cc1oc(-c2ccccc2)nc1CNCc1ccc(OC(C)(C)C(=O)O)cc1
observation_type: pEC50
readout_number: 5.00

Exam item: If you can, please state the reported pEC50 value of COc1ccc(OC(=O)N(CC(=O)O)Cc2ccc(OCCc3nc(-c4ccccc4)oc3C)cc2)cc1 [MURAGLITAZAR] .
Marked response: 6.52

Exam item: If you can, please state the reported pEC50 value of Cc1oc(-c2ccccc2)nc1CNc1ccc(OC(C)(C)C(=O)O)cc1 .
Marked response: 5.14

Exam item: If you can, please state the reported pEC50 value of Cc1oc(-c2cccc(Br)c2)nc1CCOc1ccc(OC(C)(C)C(=O)O)cc1 .
Marked response: 7.09
